tested on: Calf thymus DNA; test: Binding affinity to calf thymus DNA at 1 x 10^-5 M after 30 mins by circular dichroism analysis; format: nucleic-acid assay; conditions: Bos taurus
The source made the active and inactive calls. The calls are words filed in the database; no cut-off is given here. Numbered stars: 1 amine (or outer) side, 2 acyl side, 3 side chain; on linkers, the order of the positions; unused ones are H or OH. Bridge positions count the residues as written; N and C are the ends. Square brackets hold non-standard residues; d marks the D form. Peptide text beside a SMILES is read from it. I, II: the chains in the order shown. Actinocin(9to1) = Cc1c2oc3c(C)ccc(C(=O)[*:1])c3nc-2c(C(=O)[*:2])c(N)c1=O; NMeV = CN[C@H](C(=O)O)C(C)C; Sar = CNCC(=O)O
Response enum: active, inactive

# compound, classification
records = [
    ("Cc1c2oc3c(C)ccc(C(=O)N[C@@H]4C(=O)N[C@H](C(C)C)C(=O)N5CCC[C@H]5C(=O)N(C)CC(=O)N(C)[C@@H](C(C)C)C(=O)O[C@@H]4C)c3nc-2c(C(=O)N[C@@H]2C(=O)N[C@H](C(C)C)C(=O)N3CCC[C@H]3C(=O)N(C)CC(=O)N(C)[C@@H](C(C)C)C(=O)O[C@@H]2C)c(N)c1=O [DACTINOMYCIN] (I: T[dV]P[Sar][NMeV] / II: T[dV]P[Sar][NMeV]; ester I:1-I:C, II:1-II:C; linker I:N-II:N via Actinocin(9to1))", "active"),
    ("Cc1c2oc3c(C)ccc(C(=O)N[C@@H]4C(=O)N[C@H](C(C)C)C(=O)N5CCC[C@H]5C(=O)N(C)CC(=O)N(C)[C@@H](C(C)C)C(=O)O[C@@H]4C)c3nc-2c(C(=O)N[C@@H]2C(=O)N[C@H](C(C)C)C(=O)N3CCC[C@H]3C(=O)N(C)CC(=O)N(C)[C@@H](C(C)C)C(=O)O[C@@H]2C)c(NC2CC(C)(C)N([O])C(C)(C)C2)c1=O", "inactive"),
    ("Cc1c2oc3c(C)ccc(C(=O)N[C@@H]4C(=O)N[C@H](C(C)C)C(=O)N5CCC[C@H]5C(=O)N(C)CC(=O)N(C)[C@@H](C(C)C)C(=O)O[C@@H]4C)c3nc-2c(C(=O)N[C@@H]2C(=O)N[C@H](C(C)C)C(=O)N3CCC[C@H]3C(=O)N(C)CC(=O)N(C)[C@@H](C(C)C)C(=O)O[C@@H]2C)c(NCCNC2CC(C)(C)N([O])C(C)(C)C2)c1=O", "inactive"),
]

# next compound below
Q. Hello, I am checking results. What call was entered for Cc1c2oc3c(C)ccc(C(=O)N[C@@H]4C(=O)N[C@H](C(C)C)C(=O)N5CCC[C@H]5C(=O)N(C)CC(=O)N(C)[C@@H](C(C)C)C(=O)O[C@@H]4C)c3nc-2c(C(=O)N[C@@H]2C(=O)N[C@H](C(C)C)C(=O)N3CCC[C@H]3C(=O)N(C)CC(=O)N(C)[C@@H](C(C)C)C(=O)O[C@@H]2C)c(NCCCNC2CC(C)(C)N([O])C(C)(C)C2)c1=O ?
A. active

---

target: Bacterial DNA-directed RNA polymerase (Bacteria) (UniProt P0A8V2+P0A7Z4+P0A8T7+P0A800); assay: Inhibition of Escherichia coli DNA-dependent RNA polymerase at 10 ug/ml using Micrococcus luteus DNA as primer; format: protein-complex assay
Sequence (P0A7Z4 whole entry partner): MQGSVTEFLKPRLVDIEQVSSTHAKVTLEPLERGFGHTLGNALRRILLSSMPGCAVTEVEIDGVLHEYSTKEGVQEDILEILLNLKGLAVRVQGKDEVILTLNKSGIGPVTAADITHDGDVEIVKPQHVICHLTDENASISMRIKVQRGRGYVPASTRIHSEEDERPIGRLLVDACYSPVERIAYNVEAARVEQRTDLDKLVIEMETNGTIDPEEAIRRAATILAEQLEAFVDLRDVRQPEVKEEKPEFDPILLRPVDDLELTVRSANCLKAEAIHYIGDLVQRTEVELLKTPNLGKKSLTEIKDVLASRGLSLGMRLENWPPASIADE
Sequence (P0A800 2-91 partner limits assumed): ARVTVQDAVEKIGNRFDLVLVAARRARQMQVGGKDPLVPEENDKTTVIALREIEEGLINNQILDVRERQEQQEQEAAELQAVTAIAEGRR
Sequence (P0A8T7 whole entry partner): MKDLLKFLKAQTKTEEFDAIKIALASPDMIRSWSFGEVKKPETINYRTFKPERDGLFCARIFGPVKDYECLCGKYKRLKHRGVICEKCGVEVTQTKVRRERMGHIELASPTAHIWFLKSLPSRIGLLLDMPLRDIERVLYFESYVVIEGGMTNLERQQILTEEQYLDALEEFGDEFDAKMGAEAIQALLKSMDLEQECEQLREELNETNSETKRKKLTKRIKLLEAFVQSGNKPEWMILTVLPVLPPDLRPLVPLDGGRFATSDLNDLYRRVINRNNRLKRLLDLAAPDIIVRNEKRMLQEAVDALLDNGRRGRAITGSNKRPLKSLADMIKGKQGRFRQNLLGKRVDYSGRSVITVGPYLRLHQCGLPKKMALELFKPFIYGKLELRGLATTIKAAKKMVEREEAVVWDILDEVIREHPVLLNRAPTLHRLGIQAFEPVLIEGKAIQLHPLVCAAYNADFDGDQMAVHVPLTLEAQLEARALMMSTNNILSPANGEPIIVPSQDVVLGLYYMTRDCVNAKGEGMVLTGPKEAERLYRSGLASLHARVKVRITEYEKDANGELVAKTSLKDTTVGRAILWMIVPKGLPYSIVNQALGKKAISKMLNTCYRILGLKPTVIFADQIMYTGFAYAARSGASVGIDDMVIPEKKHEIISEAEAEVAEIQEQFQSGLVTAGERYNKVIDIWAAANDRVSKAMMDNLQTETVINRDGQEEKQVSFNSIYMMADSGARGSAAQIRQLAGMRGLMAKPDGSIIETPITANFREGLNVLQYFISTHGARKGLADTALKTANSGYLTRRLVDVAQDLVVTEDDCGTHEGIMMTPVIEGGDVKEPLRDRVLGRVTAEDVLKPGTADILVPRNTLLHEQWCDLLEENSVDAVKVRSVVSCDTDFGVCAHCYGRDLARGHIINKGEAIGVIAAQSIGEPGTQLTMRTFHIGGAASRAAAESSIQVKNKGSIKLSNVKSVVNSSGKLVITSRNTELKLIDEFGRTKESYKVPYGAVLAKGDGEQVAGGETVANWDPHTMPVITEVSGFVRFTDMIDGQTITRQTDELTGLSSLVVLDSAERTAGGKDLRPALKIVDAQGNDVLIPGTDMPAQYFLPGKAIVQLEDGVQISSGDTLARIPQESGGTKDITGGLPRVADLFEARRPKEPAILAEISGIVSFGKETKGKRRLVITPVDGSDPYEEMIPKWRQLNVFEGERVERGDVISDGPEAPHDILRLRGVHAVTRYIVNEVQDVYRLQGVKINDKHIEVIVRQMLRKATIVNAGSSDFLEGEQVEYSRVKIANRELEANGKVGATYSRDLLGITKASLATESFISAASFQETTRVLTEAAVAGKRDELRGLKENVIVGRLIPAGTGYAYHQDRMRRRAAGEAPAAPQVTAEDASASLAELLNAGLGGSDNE
Sequence (P0A8V2 whole entry): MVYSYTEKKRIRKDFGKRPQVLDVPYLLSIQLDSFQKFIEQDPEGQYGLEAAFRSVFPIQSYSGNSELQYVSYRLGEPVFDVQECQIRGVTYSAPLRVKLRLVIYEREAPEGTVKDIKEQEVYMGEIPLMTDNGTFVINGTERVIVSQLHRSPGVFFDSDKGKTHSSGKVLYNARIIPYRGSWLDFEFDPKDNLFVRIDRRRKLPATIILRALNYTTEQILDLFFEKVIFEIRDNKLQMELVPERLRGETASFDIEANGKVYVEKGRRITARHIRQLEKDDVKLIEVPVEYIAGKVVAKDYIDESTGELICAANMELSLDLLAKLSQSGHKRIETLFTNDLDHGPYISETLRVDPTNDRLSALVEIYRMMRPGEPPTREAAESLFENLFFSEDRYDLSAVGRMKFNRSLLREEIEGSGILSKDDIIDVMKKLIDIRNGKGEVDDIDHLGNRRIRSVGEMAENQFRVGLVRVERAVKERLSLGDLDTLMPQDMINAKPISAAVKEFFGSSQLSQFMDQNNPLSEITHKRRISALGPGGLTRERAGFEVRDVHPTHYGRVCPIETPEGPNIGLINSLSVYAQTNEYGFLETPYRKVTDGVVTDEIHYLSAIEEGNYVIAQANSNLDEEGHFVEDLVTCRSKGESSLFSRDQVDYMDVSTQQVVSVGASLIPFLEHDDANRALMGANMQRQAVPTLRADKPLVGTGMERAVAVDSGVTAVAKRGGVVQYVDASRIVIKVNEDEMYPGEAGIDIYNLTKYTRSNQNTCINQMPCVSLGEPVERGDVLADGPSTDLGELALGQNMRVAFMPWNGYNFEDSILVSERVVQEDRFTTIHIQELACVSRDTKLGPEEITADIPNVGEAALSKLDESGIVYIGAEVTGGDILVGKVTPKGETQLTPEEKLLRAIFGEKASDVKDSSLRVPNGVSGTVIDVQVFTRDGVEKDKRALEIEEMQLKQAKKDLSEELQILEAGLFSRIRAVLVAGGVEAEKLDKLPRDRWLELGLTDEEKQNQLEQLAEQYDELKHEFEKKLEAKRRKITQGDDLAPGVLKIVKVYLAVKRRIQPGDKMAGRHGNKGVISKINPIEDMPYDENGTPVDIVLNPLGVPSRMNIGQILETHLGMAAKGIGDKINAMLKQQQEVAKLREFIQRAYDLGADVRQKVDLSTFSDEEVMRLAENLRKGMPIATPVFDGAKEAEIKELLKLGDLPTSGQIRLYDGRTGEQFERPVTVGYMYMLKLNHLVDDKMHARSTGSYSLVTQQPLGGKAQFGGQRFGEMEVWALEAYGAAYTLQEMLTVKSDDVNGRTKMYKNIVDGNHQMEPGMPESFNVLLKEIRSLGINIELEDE
Numbered stars: 1 amine (or outer) side, 2 acyl side, 3 side chain; on linkers, the order of the positions; unused ones are H or OH. Bridge positions count the residues as written; N and C are the ends. Square brackets hold non-standard residues; d marks the D form. Peptide text beside a SMILES is read from it. I, II: the chains in the order shown. Actinocin(9to1) = Cc1c2oc3c(C)ccc(C(=O)[*:1])c3nc-2c(C(=O)[*:2])c(N)c1=O; NMeV = CN[C@H](C(=O)O)C(C)C; Sar = CNCC(=O)O
test-readout: inhibition (%)
Form entry: value (%) — number only.

Q. What value of inhibition has been recorded for this entry: Cc1c2oc3c(C)ccc(C(=O)N[C@@H]4C(=O)N[C@H](C(C)C)C(=O)N5CCC[C@H]5C(=O)N(C)CC(=O)N(C)[C@@H](C(C)C)C(=O)O[C@@H]4C)c3nc-2c(C(=O)N[C@@H]2C(=O)N[C@H](C(C)C)C(=O)N3CCC[C@H]3C(=O)N(C)CC(=O)N(C)[C@@H](C(C)C)C(=O)O[C@@H]2C)c(N)c1=O [DACTINOMYCIN] (I: T[dV]P[Sar][NMeV] / II: T[dV]P[Sar][NMeV]; ester I:1-I:C, II:1-II:C; linker I:N-II:N via Actinocin(9to1))
A. 99

---

molecular target: Bacterial DNA-directed RNA polymerase (Bacteria) (UniProt P0A8V2+P0A7Z4+P0A8T7+P0A800); experiment: Inhibition of Escherichia coli DNA-dependent RNA polymerase at 5 ug/ml using Micrococcus luteus DNA as primer; type: protein-complex assay
test-readout: inhibition
Reply with a number, then the unit it belongs to.

Q. What value of inhibition has been recorded for this entry: Cc1c2oc3c(C)ccc(C(=O)N[C@@H]4C(=O)N[C@H](C(C)C)C(=O)N5CCC[C@H]5C(=O)N(C)CC(=O)N(C)[C@@H](C(C)C)C(=O)O[C@@H]4C)c3nc-2c(C(=O)N[C@@H]2C(=O)N[C@H](C(C)C)C(=O)N3CCC[C@H]3C(=O)N(C)CC(=O)N(C)[C@@H](C(C)C)C(=O)O[C@@H]2C)c(NCCNC2CC(C)(C)N([O])C(C)(C)C2)c1=O
A. 56%

Q. What value of inhibition has been recorded for this entry: Cc1c2oc3c(C)ccc(C(=O)N[C@@H]4C(=O)N[C@H](C(C)C)C(=O)N5CCC[C@H]5C(=O)N(C)CC(=O)N(C)[C@@H](C(C)C)C(=O)O[C@@H]4C)c3nc-2c(C(=O)N[C@@H]2C(=O)N[C@H](C(C)C)C(=O)N3CCC[C@H]3C(=O)N(C)CC(=O)N(C)[C@@H](C(C)C)C(=O)O[C@@H]2C)c(NC2CC(C)(C)N([O])C(C)(C)C2)c1=O
A. 33%

Q. What value of inhibition has been recorded for this entry: Cc1c2oc3c(C)ccc(C(=O)N[C@@H]4C(=O)N[C@H](C(C)C)C(=O)N5CCC[C@H]5C(=O)N(C)CC(=O)N(C)[C@@H](C(C)C)C(=O)O[C@@H]4C)c3nc-2c(C(=O)N[C@@H]2C(=O)N[C@H](C(C)C)C(=O)N3CCC[C@H]3C(=O)N(C)CC(=O)N(C)[C@@H](C(C)C)C(=O)O[C@@H]2C)c(NCCCNC2CC(C)(C)N([O])C(C)(C)C2)c1=O
A. 52%

---

biological target: Bacterial DNA-directed RNA polymerase (Bacteria) (UniProt P0A8V2+P0A7Z4+P0A8T7+P0A800); experiment: Inhibition of Escherichia coli DNA-dependent RNA polymerase at 5 ug/ml using Micrococcus luteus DNA as primer; format: protein-complex assay
Numbered stars: 1 amine (or outer) side, 2 acyl side, 3 side chain; on linkers, the order of the positions; unused ones are H or OH. Bridge positions count the residues as written; N and C are the ends. Square brackets hold non-standard residues; d marks the D form. Peptide text beside a SMILES is read from it. I, II: the chains in the order shown. Actinocin(9to1) = Cc1c2oc3c(C)ccc(C(=O)[*:1])c3nc-2c(C(=O)[*:2])c(N)c1=O; NMeV = CN[C@H](C(=O)O)C(C)C; Sar = CNCC(=O)O
test-readout: inhibition
Reply with a number, then the unit it belongs to.

Q. What value of inhibition has been recorded for this entry: Cc1c2oc3c(C)ccc(C(=O)N[C@@H]4C(=O)N[C@H](C(C)C)C(=O)N5CCC[C@H]5C(=O)N(C)CC(=O)N(C)[C@@H](C(C)C)C(=O)O[C@@H]4C)c3nc-2c(C(=O)N[C@@H]2C(=O)N[C@H](C(C)C)C(=O)N3CCC[C@H]3C(=O)N(C)CC(=O)N(C)[C@@H](C(C)C)C(=O)O[C@@H]2C)c(N)c1=O [DACTINOMYCIN] (I: T[dV]P[Sar][NMeV] / II: T[dV]P[Sar][NMeV]; ester I:1-I:C, II:1-II:C; linker I:N-II:N via Actinocin(9to1))
A. 95%

---

test system: Calf thymus DNA; assay: Binding affinity to calf thymus DNA at 1 x 10^-5 M by thermal denaturation assay; assay type: nucleic-acid assay; settings: Bos taurus
Numbered stars: 1 amine (or outer) side, 2 acyl side, 3 side chain; on linkers, the order of the positions; unused ones are H or OH. Bridge positions count the residues as written; N and C are the ends. Square brackets hold non-standard residues; d marks the D form. Peptide text beside a SMILES is read from it. I, II: the chains in the order shown. Actinocin(9to1) = Cc1c2oc3c(C)ccc(C(=O)[*:1])c3nc-2c(C(=O)[*:2])c(N)c1=O; NMeV = CN[C@H](C(=O)O)C(C)C; Sar = CNCC(=O)O
test-readout: ΔTm (°C)
Form entry: value (°C) — number only.

# compound, reported
data = [
    ("Cc1c2oc3c(C)ccc(C(=O)N[C@@H]4C(=O)N[C@H](C(C)C)C(=O)N5CCC[C@H]5C(=O)N(C)CC(=O)N(C)[C@@H](C(C)C)C(=O)O[C@@H]4C)c3nc-2c(C(=O)N[C@@H]2C(=O)N[C@H](C(C)C)C(=O)N3CCC[C@H]3C(=O)N(C)CC(=O)N(C)[C@@H](C(C)C)C(=O)O[C@@H]2C)c(NCCNC2CC(C)(C)N([O])C(C)(C)C2)c1=O", 2.8),
]

Q. What value of ΔTm has been recorded for this entry: Cc1c2oc3c(C)ccc(C(=O)N[C@@H]4C(=O)N[C@H](C(C)C)C(=O)N5CCC[C@H]5C(=O)N(C)CC(=O)N(C)[C@@H](C(C)C)C(=O)O[C@@H]4C)c3nc-2c(C(=O)N[C@@H]2C(=O)N[C@H](C(C)C)C(=O)N3CCC[C@H]3C(=O)N(C)CC(=O)N(C)[C@@H](C(C)C)C(=O)O[C@@H]2C)c(NCCCNC2CC(C)(C)N([O])C(C)(C)C2)c1=O
A. 3.5

Q. What value of ΔTm has been recorded for this entry: Cc1c2oc3c(C)ccc(C(=O)N[C@@H]4C(=O)N[C@H](C(C)C)C(=O)N5CCC[C@H]5C(=O)N(C)CC(=O)N(C)[C@@H](C(C)C)C(=O)O[C@@H]4C)c3nc-2c(C(=O)N[C@@H]2C(=O)N[C@H](C(C)C)C(=O)N3CCC[C@H]3C(=O)N(C)CC(=O)N(C)[C@@H](C(C)C)C(=O)O[C@@H]2C)c(N)c1=O [DACTINOMYCIN] (I: T[dV]P[Sar][NMeV] / II: T[dV]P[Sar][NMeV]; ester I:1-I:C, II:1-II:C; linker I:N-II:N via Actinocin(9to1))
A. 8.7

Q. What value of ΔTm has been recorded for this entry: Cc1c2oc3c(C)ccc(C(=O)N[C@@H]4C(=O)N[C@H](C(C)C)C(=O)N5CCC[C@H]5C(=O)N(C)CC(=O)N(C)[C@@H](C(C)C)C(=O)O[C@@H]4C)c3nc-2c(C(=O)N[C@@H]2C(=O)N[C@H](C(C)C)C(=O)N3CCC[C@H]3C(=O)N(C)CC(=O)N(C)[C@@H](C(C)C)C(=O)O[C@@H]2C)c(NC2CC(C)(C)N([O])C(C)(C)C2)c1=O
A. 1.7
